The measured values listed here are drawn from ChEMBL document CHEMBL3351507.

# Tested on: A549
# measurement-protocol: Cytotoxicity against human A549 cells assessed as growth inhibition after 72 hrs by MTT assay
# Assay type: functional
# particulars: A549, 72 h
Recorded GI50 by entry

// below: answered compounds
COc1ccc2c(c1)nnn1c3ncccc3c(N=O)c21    10.8 µM
COc1ccc2c(c1)nnc1c3cccnc3[nH]c21    7.9 µM
COc1cc2nnn3c4ncccc4c(N=O)c3c2cc1OC    13.3 µM
O=Nc1c2cccnc2n2nnc3ccc(Cl)cc3c12    2.2 µM

Okay, next one:
Known value: A549 GI50 of the compound COc1cc2nnc3c4cccnc4[nH]c3c2cc1OC equals 7.9 µM
